From: patent US9233982B2

- target_under_test: BACE-1 (Homo sapiens, UniProt P56817)
- Sequence (P56817 46-501): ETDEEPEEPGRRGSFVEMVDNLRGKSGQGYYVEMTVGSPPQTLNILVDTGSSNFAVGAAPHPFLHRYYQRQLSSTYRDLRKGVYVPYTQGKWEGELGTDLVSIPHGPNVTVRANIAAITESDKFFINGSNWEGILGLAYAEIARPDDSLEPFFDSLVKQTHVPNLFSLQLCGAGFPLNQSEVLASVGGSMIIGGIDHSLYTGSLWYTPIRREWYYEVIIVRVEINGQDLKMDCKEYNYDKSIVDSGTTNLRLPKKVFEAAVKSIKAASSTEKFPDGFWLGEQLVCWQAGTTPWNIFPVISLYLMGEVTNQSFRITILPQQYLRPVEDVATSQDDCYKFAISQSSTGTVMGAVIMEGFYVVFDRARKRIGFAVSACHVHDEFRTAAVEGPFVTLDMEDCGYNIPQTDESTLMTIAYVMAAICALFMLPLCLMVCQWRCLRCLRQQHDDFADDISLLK
- method_summary: HTRF cell based assay, Aβ1-40 peptide secreted by recombinant HEK293 cells
- study_conditions: Aβ1-40 secretion, recombinant HEK293 cells producing APP, overnight treatment; read-out: Cellular assay EC50 Ranges
pEC50: −log10 of the molar value. Counter-ions that a name gives are not always drawn.
property_name: pEC50

**Query** Return reported pEC50; argument: NC1=NC2(CCCc3sc(-c4cccc(C(F)(F)F)c4)cc32)CCS1 (centres unmarked)
**Result** 4.30 to 5.30

**Query** Return reported pEC50; argument: N#Cc1cc(F)cc(-c2cc3c(s2)CCCC32CCSC(N)=N2)c1 (centres unmarked)
**Result** 5.30 to 6.00

**Query** Return reported pEC50; argument: NC1=NC2(CCCc3sc(-c4cccc(CC(F)(F)F)c4)cc32)CCS1 (centres unmarked)
**Result** 4.30 to 5.30

***
**Query** Return reported pEC50; argument: N#Cc1cccc(-c2cc3c(s2)CCC(Cc2ccccc2)C32CCSC(N)=N2)c1 (racemic)
**Result** 5.30 to 6.00

**Query** Return reported pEC50; argument: NC1=NC2(CCCc3sc(-c4cccc(-c5ccccn5)c4)cc32)CCS1 (centres unmarked)
**Result** 4.30 to 5.30

**Query** Return reported pEC50; argument: CN1C(=O)[C@@]2(CCCc3sc(-c4cccc(C#N)c4)cc32)N=C1N (single isomer, unassigned)
**Result** ≥ 6.00

**Query** Return reported pEC50; argument: CN1C(=O)C2(CCCc3sc(-c4cccc(Cl)c4)cc32)N=C1N (centres unmarked)
**Result** 5.30 to 6.00

**Query** Return reported pEC50; argument: COc1cc(C#N)cc(-c2cc3c(s2)CCCC32CCSC(N)=N2)c1 (centres unmarked)
**Result** 5.30 to 6.00

**Query** Return reported pEC50; argument: COc1ccc(C#N)cc1-c1cc2c(s1)CCCC21CCSC(N)=N1 (centres unmarked)
**Result** ≥ 6.00

**Query** Return reported pEC50; argument: COc1cc(C#N)cc(-c2cc3c(s2)CCCC32N=C(N)N(C)C2=O)c1 (centres unmarked)
**Result** 5.30 to 6.00

**Query** Return reported pEC50; argument: NC1=NC2(CCCc3cc(-c4cccc(-c5ccccc5)c4)sc32)CCS1 (centres unmarked)
**Result** 4.30 to 5.30

**Query** Return reported pEC50; argument: N#Cc1cccc(-c2cc3c(s2)CCCC32CCSC(N)=N2)c1 (centres unmarked) [Example 1, Formate Salt]
**Result** ≥ 6.00

**Query** Return reported pEC50; argument: NC1=NC2(CCCc3sc(-c4cccc(Cl)c4)cc32)CCS1 (centres unmarked)
**Result** 4.30 to 5.30

**Query** Return reported pEC50; argument: COc1ccc(-c2cccc(-c3cc4c(s3)CCCC43CCSC(N)=N3)c2)cc1 (centres unmarked)
**Result** 4.30 to 5.30

**Query** Return reported pEC50; argument: N#Cc1cc(-c2cc3c(s2)CCCC32CCSC(N)=N2)ccc1F (centres unmarked)
**Result** 5.30 to 6.00

**Query** Return reported pEC50; argument: CC(C)(C)c1cccc(-c2cc3c(s2)CCCC32CCSC(N)=N2)c1 (centres unmarked)
**Result** 4.30 to 5.30

**Query** Return reported pEC50; argument: COc1ccc(CC2CCc3sc(-c4cccc(C#N)c4)cc3C23CCSC(N)=N3)cc1 (racemic)
**Result** 4.30 to 5.30

**Query** Return reported pEC50; argument: CN1C(=O)C2(CCCc3sc(-c4cccc(C(F)(F)F)c4)cc32)N=C1N (centres unmarked)
**Result** 5.30 to 6.00

**Query** Return reported pEC50; argument: N#Cc1cccc(-c2cc3c(s2)C2(CCC3)CCSC(N)=N2)c1 (centres unmarked)
**Result** 4.30 to 5.30

**Query** Return reported pEC50; argument: COc1cc(C#N)cc(-c2cc3c(s2)CCCC32CCSC(N)=N2)c1F (centres unmarked)
**Result** 5.30 to 6.00

**Query** Return reported pEC50; argument: NC1=NC2(CCCc3sc(-c4ccc(-c5ccccc5)cc4)cc32)CCS1 (centres unmarked)
**Result** 4.30 to 5.30

**Query** Return reported pEC50; argument: N#Cc1cccc(-c2cc3c(s2)CCCC32CCSC(N)=N2)c1 (stereo in doubt) [Example 2]
**Result** ≥ 6.00

**Query** Return reported pEC50; argument: NC1=NC2(CCS1)CC(c1ccccc1)Cc1sc(-c3cccc(Br)c3)cc12 (racemic)
**Result** 4.30 to 5.30

**Query** Return reported pEC50; argument: COC(=O)c1cccc(-c2cc3c(s2)CCCC32CCSC(N)=N2)c1 (centres unmarked)
**Result** 4.30 to 5.30

**Query** Return reported pEC50; argument: NC1=NC2(CCCc3sc(-c4cccc(C(F)(F)F)c4)cc32)ON1Cc1ccccc1 (centres unmarked)
**Result** 4.30 to 5.30

**Query** Return reported pEC50; argument: CC1(C)CCc2sc(-c3cccc(C(F)(F)F)c3)cc2C12CCSC(N)=N2 (centres unmarked)
**Result** 4.30 to 5.30

**Query** Return reported pEC50; argument: NC1=NC2(CCCc3sc(-c4cncnc4)cc32)CCS1 (centres unmarked)
**Result** 4.30 to 5.30

**Query** Return reported pEC50; argument: NC1=NC2(CCCc3sc(-c4cccc(Oc5ccccc5)c4)cc32)CCS1 (centres unmarked)
**Result** 4.30 to 5.30
